- System Under Test: human RORgT (Homo sapiens, UniProt P51449)
- Sequence (P51449 267-516): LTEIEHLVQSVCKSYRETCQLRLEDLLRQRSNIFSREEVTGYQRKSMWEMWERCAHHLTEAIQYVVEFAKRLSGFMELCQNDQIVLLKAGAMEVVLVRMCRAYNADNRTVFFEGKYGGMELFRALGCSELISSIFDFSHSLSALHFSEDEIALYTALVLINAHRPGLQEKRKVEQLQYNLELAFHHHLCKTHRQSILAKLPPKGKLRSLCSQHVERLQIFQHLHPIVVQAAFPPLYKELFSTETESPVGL
- Measurement Protocol: RORgT Gal4 Luciferase Reporter Gene Assay
- Test Settings: engineered Jurkat cells overexpressing RORgT (LBD or full length) fused with Gal4 Luc reporter; 18 hours at 37° C.; luminescence
Experimental Readout: EC50 (nM)

A: CN1NC(=O)C[C@H]1C(=O)N1CC[C@@]2(S(=O)(=O)c3ccccc3)c3ccc(OCc4c(F)cccc4Cl)cc3CC[C@@H]12
B: O=C(C1CCS(=O)(=O)C1)N1CC[C@@]2(S(=O)(=O)c3ccc(F)cc3)c3ccc(OCc4c(F)cccc4C(F)(F)F)cc3CC[C@@H]12 (stereo partly drawn)
C: CS(=O)(=O)n1cc(C(=O)N2CC[C@@]3(S(=O)(=O)c4ccccc4)c4ccc(OCc5c(Cl)cccc5Cl)cc4CC[C@@H]23)cn1
// query Kindly provide a descending ordering of the above molecules based on their EC50. Form entry: ranked labels (order as requested).
// result C, A, B
